test: viability profiling in MM1S myeloma cells – cell-based, resazurin fluorescence, basal, 24 h, PK04 Diversity Set, profiling panel (AID 1174); conditions: higher = more signal, called active from +8 up or from −8 down;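 also: MM1S multiple myeloma cell line; test concentration not given here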
Rule: z-score of -3 or more gives 1; anything lower gives 0.

These recorded examples may help you get a feel for the data.
compound=O=C1C=C(c2ccccc2)C(=O)C2=C1CC([C@H]1Oc3ccccc3S(=O)(=O)N3CCC[C@@H]13)=CC2 class_label=0
compound=C=CCOC(=O)[C@H]1[C@@H]2C(=O)O[C@@H](c3ccccc3)[C@@H](c3ccccc3)N2[C@@H](c2ccc(OCCOC(=O)[C@@H]3C[C@@H]4C(=O)N[C@@H](CCCCNC(C)=O)C(=O)N4[C@@H]3c3cccc(OCCO)c3)cc2)[C@]12C(=O)Nc1ccccc12 class_label=1
compound=O=C1O[C@H](Cc2ccccc2)[C@@H]2[C@H]3C=CCCC=C3CN2[C@H]1Cc1ccc(O)cc1 class_label=1
compound="C[C@@H]1NC(=O)C([C@@H](C)OCc2ccccc2)NC(=O)[C@@]23C(=O)N[C@@H](Cc4ccccc4)C2[C@H](C)[C@@]2(C)O[C@H]2C3/C=C/C/C=C\\CNC1=O (stereo partly specified)" class_label=1
compound=COC(=O)[C@@]1(Cc2ccccc2)[C@H]2c3cc(C(=O)N(C)C)n(Cc4ccc(S(C)(=O)=O)cc4)c3C[C@H]2CN1C(=O)c1ccccc1 class_label=1

Turning now to a further record.
Prompt: z-score >= -3 for `O=C1C[C@@](C(=O)NC2CC2)(c2ccc([N+](=O)[O-])cc2)[C@@H](c2ccc(CO)cc2)N1C1CCCCC1` ?
Completion: 1

----------
molecular target: Torsin-1A-interacting protein 2 (Homo sapiens) (UniProt Q8NFQ8); experiment: small molecules binding lysate-expressed LULL1 – cell lysate, human LULL1 lysate, 635/667 nm fluorescence, primary screen (AID 1092); conditions: small-molecule microarray, hLULL1 lysate binding, 635 nm fluorescence; higher = more signal;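 also: probe is lysate of COS7 cells overexpressing human LULL1; score merges per-feature 667 nm fluorescence with signal-to-noise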
Sequence (Q8NFQ8 whole entry, looked up): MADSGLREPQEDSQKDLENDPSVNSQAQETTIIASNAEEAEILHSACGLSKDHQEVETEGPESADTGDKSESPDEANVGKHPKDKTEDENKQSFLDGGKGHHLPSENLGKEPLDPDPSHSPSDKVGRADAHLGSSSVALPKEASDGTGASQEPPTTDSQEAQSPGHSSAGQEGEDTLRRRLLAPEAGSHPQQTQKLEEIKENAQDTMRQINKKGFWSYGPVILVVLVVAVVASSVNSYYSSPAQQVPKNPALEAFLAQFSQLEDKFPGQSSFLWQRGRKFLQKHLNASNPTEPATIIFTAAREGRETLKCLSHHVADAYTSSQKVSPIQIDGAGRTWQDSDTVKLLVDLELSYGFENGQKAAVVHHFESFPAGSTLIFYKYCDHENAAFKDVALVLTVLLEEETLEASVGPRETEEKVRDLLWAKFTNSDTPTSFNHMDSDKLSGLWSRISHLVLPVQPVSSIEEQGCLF
Each item that follows carries a reported composite z-score.

Prompt: Query: composite z-score; subject: COc1ccc(C(O)C2C=CC3C(=O)NC(=O)C3N2Nc2ccc(Cl)cc2Cl)c2ccccc12 (stereo unspecified)
Completion: 2.98

----------
target: E3 ubiquitin-protein ligase XIAP (Homo sapiens) (UniProt P98170); test: small molecules binding XIAP protein – biophysical, small-molecule microarray, fluorescence 635 nm, primary screen (AID 1181); settings: higher = more signal;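 also: score merges 667 nm emission and signal to noise over triplicate slides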
Sequence (P98170 whole entry, looked up): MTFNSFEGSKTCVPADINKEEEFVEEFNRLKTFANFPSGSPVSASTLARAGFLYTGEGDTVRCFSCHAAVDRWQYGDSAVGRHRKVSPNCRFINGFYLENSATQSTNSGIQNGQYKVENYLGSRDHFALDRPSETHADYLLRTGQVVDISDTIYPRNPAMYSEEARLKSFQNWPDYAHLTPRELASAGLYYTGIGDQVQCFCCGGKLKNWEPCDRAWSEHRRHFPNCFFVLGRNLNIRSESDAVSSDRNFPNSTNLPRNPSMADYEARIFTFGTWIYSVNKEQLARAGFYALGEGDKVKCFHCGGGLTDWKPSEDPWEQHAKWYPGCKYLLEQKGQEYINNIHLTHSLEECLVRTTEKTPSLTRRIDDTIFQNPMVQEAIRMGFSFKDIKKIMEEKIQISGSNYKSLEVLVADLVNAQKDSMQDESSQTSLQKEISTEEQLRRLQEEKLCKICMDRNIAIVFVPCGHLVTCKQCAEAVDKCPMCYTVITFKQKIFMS
Binning scheme for composite z-score: bottom end = under -0.06, midrange = from -0.06 up to 0.1, top end = 0.1 and over

Prompt: Which class holds `COCCOC(=O)N1C(=O)[C@@]2(c3cc(C#CCC(C(=O)OC)C(=O)OC)ccc31)[C@H](C(=O)Nc1nc3ccccc3s1)[C@H]1C(=O)O[C@H](c3ccccc3)[C@H](c3ccccc3)N1[C@@H]2c1ccc(O)cc1` ?
Completion: top end

Prompt: Bin? `O=C1C[C@@](C(=O)NC2CC2)(c2ccc([N+](=O)[O-])cc2)[C@@H](c2ccc(CO)cc2)N1C1CCCCC1`
Completion: midrange

Prompt: Exam item: assign `COCCCNC(=O)[C@@]1(CCC(=O)OC(C)(C)C)COC(c2ccc(OCCCO)cc2)=N1` to the correct category.
Completion: midrange

----------
test: COS7 lysate on small-molecule microarray, probe aHis, 635 nm (AID 1123); conditions: COS7 cell lysate, fluorescence, higher = more signal;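 also: z-score combines 667nm fluorescence intensity with signal-to-noise per printed compound spot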
measured-property: composite z-score
Format: numeric value only, no unit, no commentary.

// known answers, use as guide
molecule=COC(=O)[C@@]1(Cc2ccccc2)[C@H]2c3cc(C(=O)N(C)C)n(CCO)c3C[C@H]2CN1C(=O)c1ccccc1 measured_property="composite z-score" quantitative_result=3.13
molecule=CCOC(=O)C[C@H]1[C@H](OC(=O)c2ccccc2-c2ccccc2)[C@@H](NC(=O)C2CCCCC2)c2cc(OCCCO)ccc2N1C(=O)c1ccc2ccccc2n1 measured_property="composite z-score" quantitative_result=0.249
molecule="CCOC(=O)C1=CCC(c2cc3ccccc3[nH]2)N(CCN2CC(C(=O)OCC)=CCC2c2cc3ccccc3[nH]2)C1 (configuration not stated)" measured_property="composite z-score" quantitative_result=4.05

Prompt: Which composite z-score is reported for this molecule? COc1ccc(C(O)C2C=CC3C(=O)N(C)C(=O)C3N2N(c2ccccc2)c2ccccc2)cc1 (configuration not stated)
Completion: 1.49

Prompt: # lookup: composite z-score of CC(C)(C)N1CC=CC23O[C@@H]4/C=C\CCCOC(=O)C4[C@H]2C(=O)N(CCCCCO)[C@@H]3C1=O (some centres not stated)
Completion: -0.584

Prompt: Param item = COc1ccc(NN2C(C(O)c3ccc(I)cc3)C=CC3C(=O)N(C4CCCCC4)C(=O)C32)cc1 (configuration not stated) ; retrieve measured composite z-score.
Completion: 1.53

Prompt: Fill blank: measured composite z-score of the molecule `COC(=O)[C@@]1(Cc2ccc(F)cc2)[C@H]2c3cc(C(=O)N(C)C)n(C)c3C[C@H]2CN1C(=O)c1ccccc1` is ____.
Completion: 1.37

Prompt: Recorded composite z-score for `COc1ccc(C#Cc2ccc3c(c2)[C@]2(C(=O)N3)[C@H](C(=O)O)[C@H]3C(=O)O[C@H](c4ccccc4)[C@H](c4ccccc4)N3[C@@H]2c2ccccc2OCCO)cc1` , please?
Completion: 1.08

Prompt: // query composite z-score value for entry `C[N+](C)(C)CCCC[C@@H]1NC(=O)[C@H]2C[C@@H](C(=O)NCCCCCNC(=O)CS)[C@@H](c3cccc(OCCO)c3)N2C1=O`
Completion: 1.63

Prompt: What does the record list as composite z-score for C=CCC(OC(C)=O)[C@@H]1[C@@H](N(Cc2cccc3ccccc23)C(=O)Cc2ccc(OC)cc2)c2cc(OCCCO)ccc2N1C(=O)Cc1ccc2ccccc2c1 (some centres not stated) ?
Completion: 1.17

Prompt: Sample `COCCOC(=O)N1C(=O)[C@@]2(c3ccccc31)[C@H](C(=O)N1CCN(c3ncccn3)CC1)[C@H]1C(=O)O[C@H](c3ccccc3)[C@H](c3ccccc3)N1[C@@H]2c1ccccc1OCCO` — what was its composite z-score?
Completion: 1.19

Attribution: PubChem BioAssay
